# Lookup of reported Emax (10 µM), % of native GIP keyed by entry
- study_system: T1, human GIP receptor (human, UniProt P48546 22-466)
- T1 sequence (looked up): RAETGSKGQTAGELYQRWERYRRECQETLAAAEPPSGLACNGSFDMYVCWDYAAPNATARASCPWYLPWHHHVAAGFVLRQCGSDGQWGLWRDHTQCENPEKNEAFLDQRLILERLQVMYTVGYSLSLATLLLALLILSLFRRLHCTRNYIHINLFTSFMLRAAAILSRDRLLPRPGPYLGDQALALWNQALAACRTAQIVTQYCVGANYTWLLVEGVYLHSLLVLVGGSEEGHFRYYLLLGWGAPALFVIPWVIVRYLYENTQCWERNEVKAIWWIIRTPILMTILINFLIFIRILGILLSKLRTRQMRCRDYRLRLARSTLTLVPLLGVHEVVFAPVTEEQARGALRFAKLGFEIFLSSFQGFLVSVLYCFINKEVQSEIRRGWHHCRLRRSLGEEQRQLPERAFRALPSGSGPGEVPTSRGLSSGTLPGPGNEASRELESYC
- protocol_summary: cell-based or functional assay
Ends that are not written are not given here. * marks the point of attachment. Lauroyl = CCCCCCCCCCCC(=O)*

Ask | # Emax (10 µM), % of native GIP lookup, item HADGTFISDYSTILDNLKARDFINWLIQTKITK [GIP-GLP-2 co-agonist 27]
Reply | 100%

Ask | Data request, read-out Emax (10 µM), % of native GIP, for HADGTFISDYSTILDNLAARDFINWLIQTKGK(Lauroyl)K [GIP-GLP-2 co-agonist 35]
Reply | 99%

Ask | Which measured Emax (10 µM), % of native GIP value corresponds to HADGTFSSDYSTILDNLAAKDFINWLIQTKITD [GIP-GLP-2 co-agonist 20] ?
Reply | 98%

Ask | Return reported Emax (10 µM), % of native GIP; argument: HADGTFISDYSTILDNLAARDFINWLIQTK(Lauroyl)ITK [GIP-GLP-2 co-agonist 30]
Reply | 100%

Ask | Would you kindly share the measured Emax (10 µM), % of native GIP for HADGTFISDYSTILDNLAAKDFINWLIQTKITK [GIP-GLP-2 co-agonist 28] ?
Reply | 100%

Ask | I would be grateful if you could share the reported Emax (10 µM), % of native GIP for HADGSFSDEMNTILDNLAARDFINWLIQTKITD (ligand) [human native GLP-2] .
Reply | 22%

Where do the numbers come from? From patent US20200392198A1.
